Would you mind telling me the reported log10(Kd) of each entry?
- test.target: T1, SigI1C, C-terminal domain of σI factor SigI1 (C. thermocellum ATCC 27405, UniProt A3DBH0 141-249)
- T1 sequence: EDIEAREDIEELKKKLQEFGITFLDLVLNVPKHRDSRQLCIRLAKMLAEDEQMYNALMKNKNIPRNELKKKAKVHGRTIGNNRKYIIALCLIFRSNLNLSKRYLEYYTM
- assay.summary: SPR
// units: nM (pre-log); metric: Kd; scale: log10

Examples with their reported log10(Kd) follow.
[[record]]
binder = "RsgI1N E9K (domain or fragment, C. thermocellum ATCC 27405) MNRLGIIYKIQGMKAVVLTSEGEFLIIRRRKDMKVGQQVSFENEDIYNVRGK"
result = -1.01

[[record]]
binder = "RsgI1N E9G (domain or fragment, C. thermocellum ATCC 27405) MNRLGIIYGIQGMKAVVLTSEGEFLIIRRRKDMKVGQQVSFENEDIYNVRGK"
result = -1.15

[[record]]
binder = "RsgI1N E9K-E21K (domain or fragment, C. thermocellum ATCC 27405) MNRLGIIYKIQGMKAVVLTSKGEFLIIRRRKDMKVGQQVSFENEDIYNVRGK"
result = -1.70

[[record]]
binder = "RsgI1N L18I (domain or fragment, C. thermocellum ATCC 27405) MNRLGIIYEIQGMKAVVITSEGEFLIIRRRKDMKVGQQVSFENEDIYNVRGK"
result = -0.17


// each binder listed below needs its log10(Kd)
1. RsgI1N E21K (domain or fragment, C. thermocellum ATCC 27405) MNRLGIIYEIQGMKAVVLTSKGEFLIIRRRKDMKVGQQVSFENEDIYNVRGK
2. RsgI1N Y8I (domain or fragment, C. thermocellum ATCC 27405) MNRLGIIIEIQGMKAVVLTSEGEFLIIRRRKDMKVGQQVSFENEDIYNVRGK
3. RsgI1N E23K (domain or fragment, C. thermocellum ATCC 27405) MNRLGIIYEIQGMKAVVLTSEGKFLIIRRRKDMKVGQQVSFENEDIYNVRGK
4. RsgI1N Y8L-E9K (domain or fragment, C. thermocellum ATCC 27405) MNRLGIILKIQGMKAVVLTSEGEFLIIRRRKDMKVGQQVSFENEDIYNVRGK
5. RsgI1N V16K (domain or fragment, C. thermocellum ATCC 27405) MNRLGIIYEIQGMKAKVLTSEGEFLIIRRRKDMKVGQQVSFENEDIYNVRGK

A.
1: -1.80; 2: -0.35; 3: -0.44; 4: -0.80; 5: 0.38

// each binder listed below needs its log10(Kd)
1. RsgI1N L18F (domain or fragment, C. thermocellum ATCC 27405) MNRLGIIYEIQGMKAVVFTSEGEFLIIRRRKDMKVGQQVSFENEDIYNVRGK
2. RsgI1N V16I (domain or fragment, C. thermocellum ATCC 27405) MNRLGIIYEIQGMKAIVLTSEGEFLIIRRRKDMKVGQQVSFENEDIYNVRGK

A.
1: -2.51; 2: -0.44
